System: OVCAR-8 ovarian
assay.name: NCI tumour cell line growth inhibition, 48 h
GI50 values, listed per item

[
  {
    "compound": "CCOc1ccccc1NC(=O)C(C#N)C1=C(Cl)C(=O)c2ccccc2C1=O (stereo unspecified)",
    "measurement.target": "OVCAR-8 ovarian",
    "GI50": "1.92 µM"
  },
  {
    "compound": "O=C(CSC(c1ccccc1)c1ccccc1)N/N=C/c1ccco1",
    "measurement.target": "OVCAR-8 ovarian",
    "GI50": "1.84 µM"
  },
  {
    "compound": "O=C(N/N=C/c1ccc([N+](=O)[O-])o1)c1ccc(O)cc1",
    "measurement.target": "OVCAR-8 ovarian",
    "GI50": "4.86 µM"
  },
  {
    "compound": "NC(=S)N/N=C/c1cc(-c2cccc(N)c2)ccn1",
    "measurement.target": "OVCAR-8 ovarian",
    "GI50": "1.66 µM"
  },
  {
    "compound": "Clc1cc(Cl)cc(Nc2ccc3cc(OCCCN4CCOCC4)ccc3n2)c1",
    "measurement.target": "OVCAR-8 ovarian",
    "GI50": "4.36 µM"
  },
  {
    "compound": "Nc1nc(N)c2cc(CNc3ccc(C(=O)NC(CC(=O)O)C(=O)O)c(Cl)c3)ccc2n1 (stereo unspecified)",
    "measurement.target": "OVCAR-8 ovarian",
    "GI50": "0.05 µM"
  },
  {
    "compound": "C=C1CC[C@@H](C(C)C)C[C@@H]2[C@H]([C@H](O)C[C@]2(C)O)[C@@]2(C)CC[C@@H]1O2",
    "measurement.target": "OVCAR-8 ovarian",
    "GI50": "21.4 µM"
  },
  {
    "compound": "COc1ccc2c(c1)C(C)Cc1c(ncnc1-n1cnc3cc(C)ccc31)N2C (stereo unspecified)",
    "measurement.target": "OVCAR-8 ovarian",
    "GI50": "0.244 µM"
  },
  {
    "compound": "S=C1SC2=Nc3ccccc3CN2C2=NCCN12",
    "measurement.target": "OVCAR-8 ovarian",
    "GI50": "> 100 µM"
  },
  {
    "compound": "Clc1ccc(N=CNc2ccc(-c3nc4ccccc4o3)cc2)cc1",
    "measurement.target": "OVCAR-8 ovarian",
    "GI50": "21.1 µM"
  },
  {
    "compound": "O=c1[nH]c(=O)n([C@H]2CCCO2)cc1F",
    "measurement.target": "OVCAR-8 ovarian",
    "GI50": "2270 µM"
  }
]

###

Tested on: ACHN renal
assay.name: NCI tumour cell line growth inhibition, 48 h

[
  {
    "compound": "CCCCCCCCCCN1CCC(N2CCCCC2)CC1",
    "units.label": "µM",
    "value.qualifier": "=",
    "TGI": 13.7
  },
  {
    "compound": "O=C1C(Cl)=C(Nc2ccccc2O)C(=O)N1Cc1ccccc1",
    "units.label": "µM",
    "value.qualifier": "=",
    "TGI": 55.8
  },
  {
    "compound": "Clc1ccc(N=CNc2ccc(-c3nc4ccccc4o3)cc2)cc1",
    "units.label": "µM",
    "value.qualifier": ">",
    "TGI": 100
  },
  {
    "compound": "Cc1ccc(Nc2nnc(-c3ccc4c(c3)OCO4)o2)c(C)c1",
    "units.label": "µM",
    "value.qualifier": ">",
    "TGI": 100
  },
  {
    "compound": "CC/C=C/C/C=C/C/C=C/C/C=C/C/C=C/C/C=C/CCC(=O)Nc1ccn([C@@H]2O[C@H](CO)[C@@H](O)C2(F)F)c(=O)n1",
    "units.label": "µM",
    "value.qualifier": "=",
    "TGI": 14.6
  },
  {
    "compound": "O=C(O)CSC(NC(=O)C(C(F)(F)F)C(F)(F)F)(C(F)(F)F)C(F)(F)F",
    "units.label": "µM",
    "value.qualifier": ">",
    "TGI": 100
  },
  {
    "compound": "Clc1ccc(Cl)c(SCCCN2CCNCC2)c1",
    "units.label": "µM",
    "value.qualifier": "=",
    "TGI": 31.1
  },
  {
    "compound": "O=C(c1ccco1)C1CC(c2c(O)ccc3ccccc23)=NN1 (stereo not given)",
    "units.label": "µM",
    "value.qualifier": "=",
    "TGI": 25
  },
  {
    "compound": "COc1ccc(N=NC(=Nc2ccc(F)cc2)c2ccc(N(CCC#N)CCC#N)cc2)cc1",
    "units.label": "µM",
    "value.qualifier": ">",
    "TGI": 100
  },
  {
    "compound": "CC1=C(c2cc(C(=O)Nc3ccc(Cl)cc3)nc(=S)[nH]2)Sc2ccccc2N1",
    "units.label": "µM",
    "value.qualifier": ">",
    "TGI": 100
  }
]
